Listing: GI50 of selected compounds
# Tested on: SF-268 CNS
# test: NCI tumour cell line growth inhibition, 48 h
measurement type: GI50

# compound, reported measurement
measured = [
    ("Cc1ccc(SC2=CC(=O)c3nc4ccccc4c4ccnc2c34)cc1", "29.7 µM"),
    ("CCCCCCCCCCCCSC(=N)N", "7.82 µM"),
    ("N#CCc1ncc(-c2ccc(C(F)(F)F)cc2)c(NC2CCCCCC2)n1", "> 10 µM"),
    ("CO[C@@H]1CC(=O)C2(CC(=O)O[C@@H]2/C=C(\\C)CCC=C(C)C)C[C@@H]1O (stereo not given in full)", "1.18 µM"),
    ("COc1ccc(-c2ccc(-c3ccc(-c4ccc(C(=N)N)cc4)s3)s2)cc1OC", "19.5 µM"),
    ("C=CC(=O)N[C@H]1CCOC[C@H]1Nc1ncc2cc(-c3c(Cl)c(OC)cc(OC)c3Cl)ccc2n1", "16.2 µM"),
    ("O=C(Nc1ccc(Cl)cc1)c1cc(-c2ccc(Cl)cc2)c2sc(=O)[nH]c2n1", "2.56 µM"),
    ("S=C1Nc2ccc(Cl)cc2C2(c3ccccc3)N3CCN=C3NN12 (stereo not given)", "28.6 µM"),
    ("c1ccc(-n2nnnc2-c2cccc3ccccc23)cc1", "0.833 µM"),
    ("Cc1c2c[n+](C(C)C)ccc2c(C)c2c1[nH]c1ccccc12", "0.475 µM"),
]
